Molecular target: T1, wild type human CD47 (Acro Biosystems, cat. no. CD7-H5227) (human, UniProt Q08722 19-139)
T1 construct: Bought protein used as SPR analyte; also called Human CD47 wt; wild-type CD47
T1 sequence (Q08722 19-139 limits assumed): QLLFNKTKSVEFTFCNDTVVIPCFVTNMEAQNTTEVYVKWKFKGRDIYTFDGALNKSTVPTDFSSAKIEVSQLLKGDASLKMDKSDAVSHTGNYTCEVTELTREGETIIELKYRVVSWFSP
Experiment: SPR, IgG captured, CD47 in flow; exp 2;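 further: rates derived from association and dissociation curves, KD estimated from them, C33G mutein used to avoid CD47 IgV homodimers for true monovalent affinity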
PROPERTY_MEASURED: pKd
pKd is a log-scale quantity: -log10 of the concentration expressed in molar.

Guide cases for pKd, answers given:
108VH10.Me / 108VL10.M1 (antibody, V domains shown, 4D5-framework series; constant regions not restated for this series; Pro53 replaced with Gln; also called VH10.Me VL10.M1) VH: EVQLVESGGGLVQPGGSLRLSCAASGYSFTHHWIHWVRQAPGKGLEWVAMIDQSDSETRLSQKFKDRFTISADTSKNTAYLQMNSLRAEDTAVYYCSRLGRYYFDYWGQGTLVTVSS VL: DIQMTQSPSSLSASVGDRVTITCRASENVGTYISWYQQKPGKAPKLLIYGASNRYTGVPSRFSGSRSGTDFTLTISSLQPEDFATYYCGESYGHLYTFGQGTKVEIK	7.28
108VH10 / 108VL10.Md (antibody, V domains shown, 4D5-framework series; constant regions not restated for this series; also called VH10 VL10.Md) VH: EVQLVESGGGLVQPGGSLRLSCAASGYSFTHHWIHWVRQAPGKGLEWVAMIDPSDSETRLSQKFKDRFTISADTSKNTAYLQMNSLRAEDTAVYYCSRLGRYYFDYWGQGTLVTVSS VL: DIQMTQSPSSLSASVGDRVTITCRASENVGTYISWYQQKPGKAPKLLIYGASNRYSGVPSRFSGSRSGTDFTLTISSLQPEDFATYYCGESYGHLYTFGQGTKVEIK	8.15
108VH10 / 108VL10.Ma (antibody, V domains shown, 4D5-framework series; constant regions not restated for this series; also called VH10 VL10.Ma) VH: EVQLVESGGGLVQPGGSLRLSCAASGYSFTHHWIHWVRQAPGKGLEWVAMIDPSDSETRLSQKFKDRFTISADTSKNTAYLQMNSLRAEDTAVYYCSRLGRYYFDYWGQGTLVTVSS VL: DIQMTQSPSSLSASVGDRVTITCRASQSISSYLNWYQQKPGKAPKLLIYGASNRYTGVPSRFSGSRSGTDFTLTISSLQPEDFATYYCGESYGHLYTFGQGTKVEIK	8.85
108VH10.Mf / 108VL10.M1 (antibody, V domains shown, 4D5-framework series; constant regions not restated for this series; also called VH10.Mf VL10.M1) VH: EVQLVESGGGLVQPGGSLRLSCAASGYSFTHHWIHWVRQAPGKGLEWVAMIDPSDSETRLVDSVKGRFTISADTSKNTAYLQMNSLRAEDTAVYYCSRLGRYYFDYWGQGTLVTVSS VL: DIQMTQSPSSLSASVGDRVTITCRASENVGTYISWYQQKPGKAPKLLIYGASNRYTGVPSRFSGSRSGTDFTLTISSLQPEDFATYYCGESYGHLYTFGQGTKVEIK	7.52

Per the records, this binder ( 108VH10 / 108VL10.M1 (antibody, V domains shown, 4D5-framework series; also called VH10 VL10.M1; straight-graft antibody) VH: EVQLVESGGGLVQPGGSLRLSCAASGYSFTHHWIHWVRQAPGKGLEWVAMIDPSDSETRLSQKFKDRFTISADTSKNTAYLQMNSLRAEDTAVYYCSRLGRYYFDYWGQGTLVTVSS VL: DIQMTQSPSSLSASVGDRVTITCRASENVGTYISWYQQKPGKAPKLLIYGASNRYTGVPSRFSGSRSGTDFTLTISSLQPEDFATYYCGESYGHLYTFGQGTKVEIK ) has pKd equal to 8.24

For reference, reported pKd for 108VH10 / 108VL10.Mc (antibody, V domains shown, 4D5-framework series; constant regions not restated for this series; also called VH10 VL10.Mc) VH: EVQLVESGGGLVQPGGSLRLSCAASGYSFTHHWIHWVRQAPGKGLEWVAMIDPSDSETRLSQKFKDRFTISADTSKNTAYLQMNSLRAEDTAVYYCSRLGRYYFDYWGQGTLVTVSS VL: DIQMTQSPSSLSASVGDRVTITCRASENVGTYISWYQQKPGKAPKLLIYGASSRYTGVPSRFSGSRSGTDFTLTISSLQPEDFATYYCGESYGHLYTFGQGTKVEIK stands at 8.00

Value of pKd reported for the binder 108VH4.M4-VL1.M1 (antibody, V domains shown, also called original humanized 108C10A6 antibody) VH: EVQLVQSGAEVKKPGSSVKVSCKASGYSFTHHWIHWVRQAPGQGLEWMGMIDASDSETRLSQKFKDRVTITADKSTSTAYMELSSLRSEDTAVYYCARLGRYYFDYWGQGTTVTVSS VL: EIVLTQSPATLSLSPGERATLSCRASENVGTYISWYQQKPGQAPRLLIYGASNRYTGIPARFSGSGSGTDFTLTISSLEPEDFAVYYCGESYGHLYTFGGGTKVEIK is 9.33

Lab book: pKd of 108VH10.Ma / 108VL10.M1 (antibody, V domains shown, 4D5-framework series; constant regions not restated for this series; also called VH10.Ma VL10.M1) VH: EVQLVESGGGLVQPGGSLRLSCAASGFTFSHHWIHWVRQAPGKGLEWVAMIDPSDSETRLSQKFKDRFTISADTSKNTAYLQMNSLRAEDTAVYYCSRLGRYYFDYWGQGTLVTVSS VL: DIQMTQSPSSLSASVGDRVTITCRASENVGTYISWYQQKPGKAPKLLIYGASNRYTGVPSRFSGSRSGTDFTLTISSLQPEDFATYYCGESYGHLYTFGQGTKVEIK noted as 8.06

Consider 108VH10.Mc / 108VL10.M1 (antibody, V domains shown, 4D5-framework series; constant regions not restated for this series; also called VH10.Mc VL10.M1) VH: EVQLVESGGGLVQPGGSLRLSCAASGYSFTHHWISWVRQAPGKGLEWVAMIDPSDSETRLSQKFKDRFTISADTSKNTAYLQMNSLRAEDTAVYYCSRLGRYYFDYWGQGTLVTVSS VL: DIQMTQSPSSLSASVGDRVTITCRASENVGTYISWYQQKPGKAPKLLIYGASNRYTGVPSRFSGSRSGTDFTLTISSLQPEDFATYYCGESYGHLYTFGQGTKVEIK . Its measured pKd is 7.68

According to the records, this binder chimeric antibody 108C10A6 (antibody, V domains shown, Chimeric antibody with mouse variable domains; captured through human Fc; also called VH / VL) VH: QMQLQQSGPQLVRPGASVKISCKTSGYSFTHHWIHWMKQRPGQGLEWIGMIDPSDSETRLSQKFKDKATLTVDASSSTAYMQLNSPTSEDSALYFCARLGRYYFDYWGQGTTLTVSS VL: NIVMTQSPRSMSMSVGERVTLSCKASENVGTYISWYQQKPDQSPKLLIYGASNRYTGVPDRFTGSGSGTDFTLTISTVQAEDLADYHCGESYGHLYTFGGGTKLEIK displays pKd of 9.68

For record 108VH10 / 108VL10.Mb (antibody, V domains shown, 4D5-framework series; constant regions not restated for this series; also called VH10 VL10.Mb) VH: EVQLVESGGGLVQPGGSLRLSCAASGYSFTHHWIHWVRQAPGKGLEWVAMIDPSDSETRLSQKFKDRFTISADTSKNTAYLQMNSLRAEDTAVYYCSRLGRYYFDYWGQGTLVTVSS VL: DIQMTQSPSSLSASVGDRVTITCRASENVGTYISWYQQKPGKAPKLLIYAASNRYTGVPSRFSGSRSGTDFTLTISSLQPEDFATYYCGESYGHLYTFGQGTKVEIK the listed pKd is 7.42

Documented pKd of 108VH10.Mb / 108VL10.M1 (antibody, V domains shown, 4D5-framework series; constant regions not restated for this series; also called VH10.Mb VL10.M1) VH: EVQLVESGGGLVQPGGSLRLSCAASGYSFTHHWMHWVRQAPGKGLEWVAMIDPSDSETRLSQKFKDRFTISADTSKNTAYLQMNSLRAEDTAVYYCSRLGRYYFDYWGQGTLVTVSS VL: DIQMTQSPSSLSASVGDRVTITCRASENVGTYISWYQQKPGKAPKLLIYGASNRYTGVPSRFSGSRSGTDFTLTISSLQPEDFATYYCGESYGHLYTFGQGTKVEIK : 8.19

src = patent US20260132197A1
